- ASSAY_SETUP: buffer; pH 7.4; 200.0 µM
Is solubility kinetic at least 30 µg/mL? Then Criterion met. If not, Criterion not met.

CC(NC(=O)/C(C#N)=C/c1ccc(C(=O)O)cc1)c1ccccc1 (stereo not drawn) = Criterion met
COc1ccc(NC(=O)C2CCCN(S(C)(=O)=O)C2)cc1Cl (stereo not drawn) = Criterion not met
Cc1ccc(NC(=O)COC(=O)Cn2ccc(=O)[nH]c2=O)cc1C = Criterion met
Cc1ccc(C(=O)NCCc2c[nH]c3ccccc23)s1 = Criterion met
CC(=O)N1CCN=C1SCc1cccc(C)c1 = Criterion met
CC1CCCC(NC(=O)CSc2ncccn2)C1C (stereo not drawn) = Criterion met
CCCc1nc(SCC(=O)c2ccc(OC)cc2)c2ccccc2n1 = Criterion not met
CCOc1ccc(S(=O)(=O)/N=C(/Nc2ccc(S(N)(=O)=O)cc2)c2ccccc2)cc1 = Criterion not met
O=C(NC1CCCCCCC1)c1cccnc1 = Criterion met
Cc1cccc(N(CC(=O)N2CCCC2)S(C)(=O)=O)c1 = Criterion met
CC1CCCN(C(=O)/C(=C/c2ccco2)NC(=O)c2ccccc2)C1 (stereo not drawn) = Criterion met
Cc1ccc(S(=O)(=O)c2c[nH]c3ccc(C)cc3c2=O)cc1 = Criterion not met
CNC1(C)[C@H]2CC[C@H](C2)C1(C)C.Cl (stereo partly drawn) = Criterion met
NS(=O)(=O)c1ccc(CCNC(=O)c2ccc(Cl)c(S(=O)(=O)N3CCCCC3)c2)cc1 = Criterion not met
Cc1ccc(S(=O)(=O)Nc2ccccc2N2CCOCC2)cc1 = Criterion not met
COc1cccc(NC(=O)Nc2ccc3c(c2)OCO3)c1 = Criterion not met
CC(C)Cn1cc(Cl)c(=O)n(CC(C)C)c1=O = Criterion met
CCOC(=O)C1=C(C)NC2=C(C(=O)c3ccccc32)C1c1ccc([N+](=O)[O-])o1 (stereo not drawn) = Criterion not met
COc1ccc(NC2CCCN(C(=O)c3c(C)noc3C)C2)cc1 (stereo not drawn) = Criterion met
O=C(c1ccc(Cl)s1)N1CCN(c2ncccn2)CC1 = Criterion met
Cc1cc(C(=O)OCC(=O)N(C)c2ccccc2)ccc1[N+](=O)[O-] = Criterion met
COC(=O)c1ccc(COc2ccc(/C=N/O)cc2OC)o1 = Criterion met
CC1=N/C(=C/c2cc(Br)cc(Br)c2O)C(=O)O1 = Criterion not met
CC(C)OCCCNC(=O)Cc1ccc(F)cc1 = Criterion met
O=C(c1cc(-c2cccc(Cl)c2)on1)N1CCOCC1 = Criterion not met
O=C(NCC1CCCO1)c1cc2ccccc2o1 (stereo not drawn) = Criterion met
Cl.Clc1cccc2c3c([nH]c12)CCNC3 = Criterion not met
CSc1nnc(C)c(=O)n1COC(=O)c1ccccc1 = Criterion met
S=C(Nc1cccnc1)N1CCCCC1 = Criterion met
Brc1cnc2nc(SC/C=C/c3ccccc3)[nH]c2c1 = Criterion not met
Cc1ccc(C)c(-n2c(=O)c(C#N)cc3c(=O)n4ccccc4nc32)c1 = Criterion not met
O=C(Cc1c(Cl)cccc1Cl)Nc1ccncc1Cl = Criterion not met
O=C(CN1C(=O)C(=O)c2ccccc21)c1ccccc1 = Criterion met
CC(C)c1ccc(C(C)NC(=S)NC2CCCCC2)cc1 (stereo not drawn) = Criterion not met
O=C(Nc1ccccc1F)C1COc2ccccc2O1 (stereo not drawn) = Criterion not met
Cc1ccc(S(=O)(=O)NCc2cccnc2)c(C)c1 = Criterion met
O=C1C2CCCN2C(=S)N1c1ccc(Cl)cc1 (stereo not drawn) = Criterion met
